Tested system: human mAChR M1 (Homo sapiens, UniProt P11229)
Construct: host or cells: CHO-K1 cells (ATCC), stably transfected using Lipofectamine2000
Sequence (P11229 1-460): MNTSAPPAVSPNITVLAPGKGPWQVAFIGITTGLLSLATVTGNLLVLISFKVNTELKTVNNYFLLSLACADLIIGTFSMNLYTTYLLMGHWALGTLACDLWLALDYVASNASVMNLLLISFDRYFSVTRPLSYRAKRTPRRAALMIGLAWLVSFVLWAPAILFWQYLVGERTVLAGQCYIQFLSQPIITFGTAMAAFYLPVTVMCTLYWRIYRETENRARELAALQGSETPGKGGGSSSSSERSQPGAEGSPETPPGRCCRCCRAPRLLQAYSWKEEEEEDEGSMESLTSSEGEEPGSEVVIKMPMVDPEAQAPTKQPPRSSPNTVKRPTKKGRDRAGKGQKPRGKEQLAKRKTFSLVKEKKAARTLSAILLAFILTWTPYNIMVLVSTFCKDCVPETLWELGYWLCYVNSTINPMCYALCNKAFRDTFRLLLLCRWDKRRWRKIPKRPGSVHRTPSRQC
Measurement notes: mAChR M1 cell-based functional assay (calcium mobilization), PAM activity: increase in the EC20 acetylcholine response
Measurement parameters: CHO-K1 cells expressing hM1; potentiation of EC20 acetylcholine response
Reported metric: EC50 (µM)
Give the number; µM is assumed, so skip it.

Enquiry: Which EC50 value is on record for Cn1cc(-c2ccc(Cn3cc(C(=O)NC4CC5(COC5)C4)c4ncccc4c3=O)c(F)c2)cn1 [Compound A11] ?
Return: 6.75

Enquiry: Same for Cc1cc(C)cc(-c2ccc(Cn3cc(C(=O)N[C@H]4CCOC[C@@H]4O)c4ncccc4c3=O)c(F)c2)c1 [Compound A30]
Return: 4.61

Enquiry: Same for Cn1cc(-c2ccc(Cn3cc(C(=O)N[C@H]4CCC[C@@H]4O)c4nccn4c3=O)c(F)c2)cn1 [Compound B7]
Return: 0.24

Enquiry: Same for Cn1cc(-c2ccc(Cn3cc(C(=O)N[C@H]4CCOC[C@@H]4O)c4nccnc4c3=O)c(F)c2)cn1 [Compound A77]
Return: 4.21

Enquiry: Same for Cc1cncc(-c2cc(F)c(Cn3cc(C(=O)N[C@H]4CCOC[C@@H]4O)c4ncccc4c3=O)c(F)c2)c1 [Compound A33]
Return: 0.86

Enquiry: Same for Cn1ccc(-c2ccc(Cn3cc(C(=O)N[C@H]4CCC[C@@H]4O)c4occc4c3=O)c(F)c2)n1 [Compound D8]
Return: 5.13

###

Tested system: human mAChR M1 (Homo sapiens, UniProt P11229)
Construct: host or cells: CHO-K1 cells (ATCC), stably transfected using Lipofectamine2000
Measurement notes: mAChR M1 cell-based functional assay (calcium mobilization), PAM activity: increase in the EC20 acetylcholine response
Measurement parameters: CHO-K1 cells expressing hM1; potentiation of EC20 acetylcholine response
Given measured Emax, output rule met if it is greater than or equal to 60% and rule not met if not.

Enquiry: Hello, I need to know if `Cc1cc(C)cc(-c2ccc(Cn3cc(C(=O)N[C@H]4CCOC[C@@H]4O)c4ncccc4c3=O)c(F)c2)c1` has measured Emax not below 60%. Thanks!
Return: rule not met

Enquiry: Same for `Cn1cc(-c2ccc(Cn3cc(C(=O)N[C@H]4CCCC[C@@H]4O)c4ncccc4c3=O)c(F)c2)cn1`
Return: rule met

Enquiry: Same for `Cn1cc2c(-c3cc(F)c(Cn4cc(C(=O)NC5CC6(COC6)C5)c5nccnc5c4=O)c(F)c3)cccc2n1`
Return: rule not met

Enquiry: Same for `Cn1ccc(-c2ccc(Cn3cc(C(=O)N[C@H]4CCCC[C@@H]4O)c4nccn4c3=O)c(F)c2)n1`
Return: rule met

Enquiry: Same for `Cn1nccc1-c1ccc(Cn2cc(C(=O)N[C@H]3CCOC[C@@H]3O)c3nccn3c2=O)c(F)c1`
Return: rule met

Enquiry: Same for `Cc1cn2c(=O)n(Cc3ccc(-c4cnn(C)c4)cc3F)cc(C(=O)N[C@H]3CCCC[C@@H]3O)c2n1`
Return: rule not met

Enquiry: Same for `Cc1nc(-c2ccc(Cn3cc(C(=O)N[C@H]4CCCC[C@@H]4O)c4ncccc4c3=O)cc2)co1`
Return: rule met

Enquiry: Same for `Cc1cn2c(=O)n(Cc3c(F)cc(-c4cccc5nn(C)cc45)cc3F)cc(C(=O)N[C@H]3CCCC[C@@H]3O)c2n1`
Return: rule not met

Enquiry: Same for `Cn1ccc(-c2ccc(Cn3cc(C(=O)N[C@H]4CCCC[C@@H]4O)c4sccc4c3=O)c(F)c2)n1`
Return: rule not met

Enquiry: Same for `Cn1ccc(-c2ccc(Cn3cc(C(=O)N[C@H]4CCOC[C@@H]4O)c4nccn4c3=O)c(F)c2)n1`
Return: rule met

Enquiry: Same for `Cn1cc2c(-c3cc(F)c(Cn4cc(C(=O)N[C@H]5CCCC[C@@H]5O)c5ncncc5c4=O)c(F)c3)cccc2n1`
Return: rule not met

Enquiry: Same for Cn1cc(-c2ccc(Cn3cc(C(=O)N[C@@H]4CC[C@H]4O)c4occc4c3=O)c(F)c2)cn1 (stereo in doubt)
Return: rule not met

Enquiry: Same for Cn1cc2c(-c3cc(F)c(Cn4cc(C(=O)N[C@@H]5CC[C@H]5O)c5occc5c4=O)c(F)c3)cccc2n1 (stereo in doubt)
Return: rule met

Enquiry: Same for `CC[C@H](C)[C@@H](CO)NC(=O)c1cn(Cc2ccc(-c3cnn(C)c3)cc2F)c(=O)c2nccnc12`
Return: rule not met

Enquiry: Same for `Cn1cc(-c2ccc(Cn3cc(C(=O)N[C@H]4CCOC[C@@H]4O)c4nccnc4c3=O)c(F)c2)cn1`
Return: rule met

Enquiry: Same for `Cn1cc(-c2ccc(Cn3cc(C(=O)N[C@H]4CCOC[C@@H]4O)c4ncccc4c3=O)cc2)cn1`
Return: rule met

Enquiry: Same for `Cc1cn2c(=O)n(Cc3ccc(-c4ccn(C)n4)cc3F)cc(C(=O)N[C@H]3CCOC[C@@H]3O)c2n1`
Return: rule not met

Enquiry: Same for `Cn1cc2c(-c3cc(F)c(Cn4cc(C(=O)N[C@H]5CCCC[C@@H]5O)c5sccc5c4=O)c(F)c3)cccc2n1`
Return: rule not met

Enquiry: Same for `Cc1ncc(-c2cc(F)c(Cn3cc(C(=O)N[C@H]4CCOC[C@@H]4O)c4ncccc4c3=O)c(F)c2)s1`
Return: rule met

Enquiry: Same for `Cn1cc(-c2ccc(Cn3cc(C(=O)N[C@H]4CCCC[C@@H]4O)c4nccn4c3=O)c(F)c2)cn1`
Return: rule met

Enquiry: Same for `O=C(N[C@H]1CCCC[C@@H]1O)c1cn(Cc2ccc(-n3cccn3)cc2)c(=O)c2cccnc12`
Return: rule met

Enquiry: Same for `Cc1ccc(-c2cc(F)c(Cn3cc(C(=O)N[C@H]4CCOC[C@@H]4O)c4ncccc4c3=O)c(F)c2)cn1`
Return: rule met

Enquiry: Same for `Cc1cc(C)cc(-c2cc(F)c(Cn3cc(C(=O)N[C@H]4CCOC[C@@H]4O)c4ncccc4c3=O)c(F)c2)c1`
Return: rule met

Enquiry: Same for `O=C(N[C@H]1CCCC[C@@H]1O)c1cn(Cc2ccc(-n3cccn3)cc2)c(=O)c2ccoc12`
Return: rule met

Taken from patent US20220041606A1.
